Recorded MFI, one value per entry.
# Target Or System: T1, human guanylyl cyclase C (GCC) (human, UniProt P25092 24-1073)
# T1 construct: also called hGCC; STAR
# T1 sequence (P25092 24-1073 limits assumed): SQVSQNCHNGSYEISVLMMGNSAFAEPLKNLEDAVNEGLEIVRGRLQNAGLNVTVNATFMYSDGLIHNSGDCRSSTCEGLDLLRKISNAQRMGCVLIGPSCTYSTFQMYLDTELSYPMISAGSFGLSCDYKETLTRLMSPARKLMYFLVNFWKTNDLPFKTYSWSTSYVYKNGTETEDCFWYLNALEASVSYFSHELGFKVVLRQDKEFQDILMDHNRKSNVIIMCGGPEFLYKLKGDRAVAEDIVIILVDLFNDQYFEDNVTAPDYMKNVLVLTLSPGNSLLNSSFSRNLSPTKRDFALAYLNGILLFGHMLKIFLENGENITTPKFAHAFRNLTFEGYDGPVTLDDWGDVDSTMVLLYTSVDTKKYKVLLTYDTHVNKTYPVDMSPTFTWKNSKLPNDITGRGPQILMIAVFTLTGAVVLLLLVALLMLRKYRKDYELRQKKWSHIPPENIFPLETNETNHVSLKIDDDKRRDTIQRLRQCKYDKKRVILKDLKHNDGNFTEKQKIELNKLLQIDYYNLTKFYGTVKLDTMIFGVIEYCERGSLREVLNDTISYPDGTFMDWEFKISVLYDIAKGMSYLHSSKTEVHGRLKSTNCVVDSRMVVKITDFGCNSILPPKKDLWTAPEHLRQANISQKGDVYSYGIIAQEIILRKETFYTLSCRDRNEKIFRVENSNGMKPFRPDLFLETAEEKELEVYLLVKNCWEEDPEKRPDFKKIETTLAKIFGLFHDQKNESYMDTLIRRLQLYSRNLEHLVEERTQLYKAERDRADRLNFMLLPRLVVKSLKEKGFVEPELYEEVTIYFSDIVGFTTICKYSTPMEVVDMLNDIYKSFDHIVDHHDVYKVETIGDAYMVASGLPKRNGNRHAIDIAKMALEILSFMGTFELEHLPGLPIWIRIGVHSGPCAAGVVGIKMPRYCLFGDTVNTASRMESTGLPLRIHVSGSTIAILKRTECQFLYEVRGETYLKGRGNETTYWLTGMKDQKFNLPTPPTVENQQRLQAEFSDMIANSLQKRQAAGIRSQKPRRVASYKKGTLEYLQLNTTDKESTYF
# Protocol Description: flow cytometry, 293 GCC #2 cells, 0.004 µg/ml

Use the examples below as a reference point.
>>> obs_value("5F9 vcMMAE immunoconjugate (antibody, V domains shown, mc-vc-MMAE linked to cysteines freed by partial reduction of interchain disulfides (outside this variable domain); average drug loading about 4 (3.6 in the described preparation), also called MLN0264; ML0264) VH: QVQLQQWGAGLLKPSETLSLTCAVFGGSFSGYYWSWIRQPPGKGLEWIGEINHRGNTNDNPSLKSRVTISVDTSKNQFALKLSSVTAADTAVYYCARERGYTYGNFDHWGQGTLVTVSS VL: EIVMTQSPATLSVSPGERATLSCRASQSVSRNLAWYQQKPGQAPRLLIYGASTRATGIPARFSGSGSGTEFTLTIGSLQSEDFAVYYCQQYKTWPRTFGQGTNVEIK")
696
>>> obs_value("5F9-vc-MMAF (antibody, V domains shown, mc-vc-MMAF linked to cysteines freed by partial reduction of interchain disulfides (outside this variable domain); average drug loading about four) VH: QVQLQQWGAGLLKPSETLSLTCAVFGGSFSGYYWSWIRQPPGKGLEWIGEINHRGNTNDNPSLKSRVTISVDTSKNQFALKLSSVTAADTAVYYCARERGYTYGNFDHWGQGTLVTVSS VL: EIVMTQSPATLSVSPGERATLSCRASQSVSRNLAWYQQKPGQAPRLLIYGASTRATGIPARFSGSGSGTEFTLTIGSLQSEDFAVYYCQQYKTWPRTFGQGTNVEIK")
707
>>> obs_value("anti-GCC human monoclonal antibody 5F9 (antibody, V domains shown, also called mAb 5F9; MAb 5F9 (Prep A)) VH: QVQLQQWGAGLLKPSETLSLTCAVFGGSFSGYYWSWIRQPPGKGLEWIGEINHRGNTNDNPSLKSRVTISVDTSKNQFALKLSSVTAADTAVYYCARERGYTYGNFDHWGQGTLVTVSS VL: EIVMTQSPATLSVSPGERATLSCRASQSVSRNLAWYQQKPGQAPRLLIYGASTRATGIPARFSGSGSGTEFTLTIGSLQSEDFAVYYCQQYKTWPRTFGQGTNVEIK")
937

# context switch: different binder, same MFI
// MFI lookup, binder = 5F9-mc-MMAF (antibody, V domains shown, mc-MMAF (non-cleavable linker) linked to cysteines freed by partial reduction of interchain disulfides (outside this variable domain); average drug loading about four) VH: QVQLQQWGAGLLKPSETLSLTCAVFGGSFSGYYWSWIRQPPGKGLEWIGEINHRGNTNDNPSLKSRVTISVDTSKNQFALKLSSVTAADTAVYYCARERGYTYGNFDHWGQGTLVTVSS VL: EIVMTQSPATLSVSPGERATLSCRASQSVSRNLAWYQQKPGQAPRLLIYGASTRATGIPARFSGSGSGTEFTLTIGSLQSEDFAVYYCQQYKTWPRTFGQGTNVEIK , result: 776
